Task for the reader: assign each of the following compounds its reported Ki.
Molecular target: D2 receptor (Rattus norvegicus, UniProt P61169)
Construct: expressed in transfected cells
Sequence (P61169 whole entry): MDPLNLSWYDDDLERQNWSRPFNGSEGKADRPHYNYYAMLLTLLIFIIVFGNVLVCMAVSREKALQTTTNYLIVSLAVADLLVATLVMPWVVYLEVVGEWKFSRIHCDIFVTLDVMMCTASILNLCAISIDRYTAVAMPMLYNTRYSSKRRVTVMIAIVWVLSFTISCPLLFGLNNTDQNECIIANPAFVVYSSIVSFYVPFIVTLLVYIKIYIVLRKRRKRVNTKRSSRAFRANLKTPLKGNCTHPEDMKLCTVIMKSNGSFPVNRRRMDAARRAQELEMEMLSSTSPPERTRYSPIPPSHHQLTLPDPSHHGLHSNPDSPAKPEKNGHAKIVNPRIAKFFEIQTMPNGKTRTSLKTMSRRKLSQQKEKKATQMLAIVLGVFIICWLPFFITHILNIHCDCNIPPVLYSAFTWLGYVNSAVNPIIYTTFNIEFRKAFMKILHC
Experiment: D2 receptor agonist evaluation (membrane binding with and without Gpp(NH)p)
Conditions: Table XV; with Gpp(NH)p; read-out: D2 receptor binding Ki with Gpp(NH)p
Write down the numeric answer in nM and omit the unit.

Ki for Oc1ccc2c(c1O)CC[C@@H]1[C@@H]2CCCN1CCc1ccccc1 (relative stereo) [trans-9] is 924

The compound Oc1cccc2c1CC[C@H]1[C@@H]2CCCN1CCc1ccccc1 (relative stereo) [cis-25] showed Ki equal to 176

Kindly note the recorded Ki for Oc1ccc2c(c1O)CC[C@@H]1[C@H]2CCCN1CCc1ccccc1 (relative stereo) [cis-9] , which is 872

# Ki (compound: Oc1cccc2c1CC[C@H]1[C@H]2CCCN1CCc1ccccc1 (relative stereo) [trans-25] ) is 1270

----------
Molecular target: beta-adrenergic receptor
Test: Beta-adrenergic (non-selective) binding assay ([3H]DHA)
Set-up: species or system rat
Conditions: Table VI; read-out: Ki of reference compounds, beta-adrenergic
I'd appreciate it if you could supply Ki values for the items below.
Number only, in µM; omit the unit.

Lab book: Ki of C=CCc1ccccc1OCC(O)CNC(C)C (stereo not shown) noted as 0.0035

Lab note: CC(C)(C)NCC(O)c1ccc(O)c(CO)c1 (stereo not shown) gave Ki of 2.88

For reference, reported Ki for COCCc1ccc(OCC(O)CNC(C)C)cc1 (stereo not shown) stands at 0.045

Form field Ki, entry CC(C)NCC(O)COc1cccc2[nH]ccc12 (stereo not shown) : 0.0011

----------
Biological target: alpha1-adrenergic receptor
Conditions: read-out: α1 receptor binding affinity Ki; Table III; rat forebrain membranes
Please provide measured Ki for the entries that follow.
Lab book: enter the figure in nM, no units written.

Given item Oc1ccc2c(c1O)CC[C@@H]1[C@H]2CCCN1CCc1ccccc1 (relative stereo) [cis-9] , the value recorded as its Ki is 190

Oc1ccc2c(c1O)CC[C@H]1[C@H]2CCCN1CCc1ccccc1 (single isomer, unassigned) [trans-(-)-9] has a reported Ki of 130

Oc1cccc2c1CC[C@@H]1[C@@H]2CCCN1CCc1ccccc1 (single isomer, unassigned) [trans-(-)-25] has a reported Ki of 4.8

compound Oc1cccc2c1CC[C@H]1[C@@H]2CCCN1CCc1ccccc1 (relative stereo) [cis-25] , Ki observed: 16

----------
Molecular target: D2 receptor (Rattus norvegicus, UniProt P61169)
Construct: expressed in transfected cells
Assay: D2 receptor agonist evaluation (membrane binding with and without Gpp(NH)p)
Conditions: in words
attributeMeasured: D2 agonist/antagonist assessment

INSERT INTO assay_data (compound, val) VALUES
  ('Oc1ccc2c(c1O)CC[C@@H]1[C@@H]2CCCN1CCc1ccccc1 (relative stereo) [trans-9]', 'appear to be agonists'),
  ('Oc1cccc2c1CC[C@H]1[C@H]2CCCN1CCc1ccccc1 (relative stereo) [trans-25]', 'appear to be agonists');

----------
Test system: 5HT3 serotonin receptor
Test: Serotonin (5HT3) binding assay ([3H]GR65630, NIE-115 neuroblastoma cells)
Details: read-out: Ki of reference compounds, 5HT3; Table X
Task for the reader: assign each of the following compounds its reported Ki.
Express your answer in nM, writing the number without its unit.

Entry "c1ccc2nc(N3CCNCC3)ccc2c1" : Ki on 5HT3 serotonin receptor = 1.5

Response field Ki (5HT3 serotonin receptor) for item NCCc1c[nH]c2ccc(O)cc12 [Serotonin, reference compound] : 18.7

Item: "CN1[C@@H]2CC[C@H]1C[C@@H](OC(=O)c1cc(Cl)cc(Cl)c1)C2" | System: 5HT3 serotonin receptor | Ki: 7.2

Item CCN(CC)CCNC(=O)c1cc(Cl)c(N)cc1OC [Metoclopramide] was tested on 5HT3 serotonin receptor; the reported Ki is 191
